Each entry below carries its reported cell viability.
- System: HaCaT keratinocytes
- test: Cell viability assay (MTT)
- Assay type: cell-based, human
- conditions: 48 h, 10.0 µM

Examples with their reported cell viability follow.
C=C(C)C1CCC23C(O)CCC(C)C2(C)CCC(C)C3C1c1c[nH]c2ccccc12 (stereo not drawn) [Compound 5, 10,23-dihydro-24,25-dehydroaflavinine]    56.8 ± 4.8 % of control
Cc1c(C)c(O)c2c(c1C)C(C)(O)OC2=O (stereo not drawn) [Compound 3, sclerolide]    96.6 ± 4.1 % of control
COc1c(OC)c(-c2c[nH]c3ccccc23)c(OC)c(OC)c1-c1c[nH]c2ccccc12 [Compound 7, asterriquinol D dimethyl ether]    78.1 ± 6.4 % of control

Data request: Using the record for Cc1c(C)c(O)c2c(c1C)C(C)C(=O)OC2=O (stereo not drawn) [Compound 4, sclerin] , report its cell viability.
Data returned: 72.1 ± 11.1 % of control

Data request: Fill in: cell viability of COc1c(OC)c(-c2c[nH]c3ccc(O)cc23)c(OC)c(OC)c1-c1c[nH]c2ccccc12 [Compound 8, petromurin C] is ___
Data returned: 97.7 ± 1.4 % of control

Data request: Query: cell viability; subject: COC1=C(c2c[nH]c3ccccc23)C(=O)C(CC=C(C)C)=C(c2c[nH]c3ccccc23)C1=O [Compound 6, kumbicin D]
Data returned: 80.0 ± 0.1 % of control

* * *

- test: Cell viability assay (MTT)
- Format: cell-based, human
- conditions: human, MCF-10A breast epithelial cells; MCF10A, 48 h; read-out: Cytotoxicity IC50
Measured IC50 at 48 h values are reported for all entries that follow.
Return type: number; implicit unit µM.

COC1=C(c2c[nH]c3ccccc23)C(=O)C(CC=C(C)C)=C(c2c[nH]c3ccccc23)C1=O    55.6
COc1c(OC)c(-c2c[nH]c3ccc(O)cc23)c(OC)c(OC)c1-c1c[nH]c2ccccc12    91

Data request: Param item = C=C(C)C1CCC23C(O)CCC(C)C2(C)CCC(C)C3C1c1c[nH]c2ccccc12 (centres unmarked) [Compound 5, 10,23-dihydro-24,25-dehydroaflavinine] ; retrieve measured IC50 at 48 h.
Data returned: 57.1

* * *

- Tested on: HaCaT keratinocytes
- test: Cell viability assay (MTT)
- Assay type: cell-based, human
- conditions: 24 h, 100.0 µM
recorded metric: cell viability

Please review the entries below; each comes with its answer.
COc1c(OC)c(-c2c[nH]c3ccccc23)c(OC)c(OC)c1-c1c[nH]c2ccccc12    64.1 ± 3.2 % of control
Cc1c(C)c(O)c2c(c1C)C(C)C(=O)OC2=O (stereo not drawn)    49.5 ± 6.0 % of control
C=C(C)C1CCC23C(O)CCC(C)C2(C)CCC(C)C3C1c1c[nH]c2ccccc12 (stereo not drawn) [Compound 5, 10,23-dihydro-24,25-dehydroaflavinine]    7.8 ± 0.3 % of control

Data request: For HaCaT keratinocytes, provide cell viability of COc1c(OC)c(-c2c[nH]c3ccc(O)cc23)c(OC)c(OC)c1-c1c[nH]c2ccccc12 please.
Data returned: 64.3 ± 1.9 % of control

Data request: Checklist item: cell viability tested on HaCaT keratinocytes, entry Cc1c(C)c(O)c2c(c1C)C(C)(O)OC2=O (stereo not drawn) [Compound 3, sclerolide] , value?
Data returned: 63.0 ± 8.6 % of control

Data request: Which cell viability is reported with HaCaT keratinocytes for this entry: COC1=C(c2c[nH]c3ccccc23)C(=O)C(CC=C(C)C)=C(c2c[nH]c3ccccc23)C1=O ?
Data returned: 21.5 ± 3.3 % of control

* * *

- test: Cell viability assay (MTT)
- Type: cell-based, human
- conditions: human, HaCaT keratinocytes, 48 h, read-out: Cytotoxicity IC50
- Procedure: Rat cardiomyocyte H9c2 cells were kindly provided by Prof. Dr. Gunhild von Amsberg from the Martini-Klinik Prostate Cancer Center, University Hospital Hamburg-Eppendorf, Hamburg, Germany. […] Compounds at concentrations up to 100 µM were added to the wells for 24h or 48 h, and the viability of the cells was measured using an MTT (3-(4,5-dimethylthiazol-2-yl)-2,5-diphenyltetrazolium bromide) assay, which was performed according to the manufacturer’s instructions (Sigma-Aldrich, Munich, Germany). […]
recorded metric: IC50 at 48 h

Cc1c(C)c(O)c2c(c1C)C(C)C(=O)OC2=O (centres unmarked)    ≥ 100 µM
COC1=C(c2c[nH]c3ccccc23)C(=O)C(CC=C(C)C)=C(c2c[nH]c3ccccc23)C1=O    49.4 µM
C=C(C)C1CCC23C(O)CCC(C)C2(C)CCC(C)C3C1c1c[nH]c2ccccc12 (centres unmarked) [Compound 5, 10,23-dihydro-24,25-dehydroaflavinine]    25.3 µM
COc1c(OC)c(-c2c[nH]c3ccc(O)cc23)c(OC)c(OC)c1-c1c[nH]c2ccccc12    80.5 µM

Now turn to the next compound.
Data request: # input compound: COc1c(OC)c(-c2c[nH]c3ccccc23)c(OC)c(OC)c1-c1c[nH]c2ccccc12 ; wanted: its IC50 at 48 h
Data returned: 80.5 µM

* * *

- test: Cell viability assay (MTT)
- Type: cell-based, rat
- conditions: rat, H9c2 cardiomyocytes; H9c2, 24 h; read-out: Cytotoxicity IC50
The following molecules are listed with their measured IC50 at 24 h values.
Give the quantity in µM, number only.

C=C(C)C1CCC23C(O)CCC(C)C2(C)CCC(C)C3C1c1c[nH]c2ccccc12 (centres unmarked) [Compound 5, 10,23-dihydro-24,25-dehydroaflavinine]    9.8

Data request: Reported IC50 at 24 h, molecule COC1=C(c2c[nH]c3ccccc23)C(=O)C(CC=C(C)C)=C(c2c[nH]c3ccccc23)C1=O [Compound 6, kumbicin D] : ____
Data returned: 72.2

* * *

- test: Cell viability assay (MTT)
- Type: cell-based, human
- conditions: human, MCF-7 breast cancer cells; MCF-7, 24 h; read-out: Cytotoxicity IC50
Below, each of the compounds is paired with its reported IC50 at 24 h value.
Number in µM, nothing else.

C=C(C)C1CCC23C(O)CCC(C)C2(C)CCC(C)C3C1c1c[nH]c2ccccc12 (centres unmarked) [Compound 5, 10,23-dihydro-24,25-dehydroaflavinine]    58.6

Data request: Which IC50 at 24 h value is on record for COC1=C(c2c[nH]c3ccccc23)C(=O)C(CC=C(C)C)=C(c2c[nH]c3ccccc23)C1=O ?
Data returned: 62.2

* * *

- Test system: MCF-10A breast epithelial cells
- test: Cell viability assay (MTT)
- Assay type: cell-based, human
- conditions: MCF10A, 24 h, 1.0 µM
- Procedure: Rat cardiomyocyte H9c2 cells were kindly provided by Prof. Dr. Gunhild von Amsberg from the Martini-Klinik Prostate Cancer Center, University Hospital Hamburg-Eppendorf, Hamburg, Germany. […] Compounds at concentrations up to 100 µM were added to the wells for 24h or 48 h, and the viability of the cells was measured using an MTT (3-(4,5-dimethylthiazol-2-yl)-2,5-diphenyltetrazolium bromide) assay, which was performed according to the manufacturer’s instructions (Sigma-Aldrich, Munich, Germany). […]
Below, each of the compounds is paired with its reported cell viability value.

Some compounds with recorded cell viability:
COC1=C(c2c[nH]c3ccccc23)C(=O)C(CC=C(C)C)=C(c2c[nH]c3ccccc23)C1=O    101.6 ± 3.1 % of control
Cc1c(C)c(O)c2c(c1C)C(C)C(=O)OC2=O (stereo not drawn)    90.8 ± 7.8 % of control
COc1c(OC)c(-c2c[nH]c3ccc(O)cc23)c(OC)c(OC)c1-c1c[nH]c2ccccc12    91.9 ± 9.5 % of control
COc1c(OC)c(-c2c[nH]c3ccccc23)c(OC)c(OC)c1-c1c[nH]c2ccccc12    102.7 ± 5.1 % of control
C=C(C)C1CCC23C(O)CCC(C)C2(C)CCC(C)C3C1c1c[nH]c2ccccc12 (stereo not drawn) [Compound 5, 10,23-dihydro-24,25-dehydroaflavinine]    101.7 ± 4.4 % of control

# input for lookup
Data request: Sample Cc1c(C)c(O)c2c(c1C)C(C)(O)OC2=O (stereo not drawn) [Compound 3, sclerolide] — what was its cell viability?
Data returned: 101.7 ± 1.3 % of control

* * *

- Tested on: H9c2 cardiomyocytes
- test: Cell viability assay (MTT)
- Assay type: cell-based, rat
- conditions: H9c2, 24 h, 100.0 µM
recorded metric: cell viability

// known answers, use as guide
Cc1c(C)c(O)c2c(c1C)C(C)C(=O)OC2=O (stereo not drawn)    73.5 ± 4.4 % of control
Cc1c(C)c(O)c2c(c1C)C(C)(O)OC2=O (stereo not drawn) [Compound 3, sclerolide]    74.6 ± 8.3 % of control

Please look at the following compound next.
Data request: Tell me the measured cell viability of COc1c(OC)c(-c2c[nH]c3ccc(O)cc23)c(OC)c(OC)c1-c1c[nH]c2ccccc12 , please.
Data returned: 57.4 ± 8.5 % of control
